# SYSTEM: Neuropilin-1 (Homo sapiens) (UniProt O14786)
# Sequence (O14786 whole entry, looked up): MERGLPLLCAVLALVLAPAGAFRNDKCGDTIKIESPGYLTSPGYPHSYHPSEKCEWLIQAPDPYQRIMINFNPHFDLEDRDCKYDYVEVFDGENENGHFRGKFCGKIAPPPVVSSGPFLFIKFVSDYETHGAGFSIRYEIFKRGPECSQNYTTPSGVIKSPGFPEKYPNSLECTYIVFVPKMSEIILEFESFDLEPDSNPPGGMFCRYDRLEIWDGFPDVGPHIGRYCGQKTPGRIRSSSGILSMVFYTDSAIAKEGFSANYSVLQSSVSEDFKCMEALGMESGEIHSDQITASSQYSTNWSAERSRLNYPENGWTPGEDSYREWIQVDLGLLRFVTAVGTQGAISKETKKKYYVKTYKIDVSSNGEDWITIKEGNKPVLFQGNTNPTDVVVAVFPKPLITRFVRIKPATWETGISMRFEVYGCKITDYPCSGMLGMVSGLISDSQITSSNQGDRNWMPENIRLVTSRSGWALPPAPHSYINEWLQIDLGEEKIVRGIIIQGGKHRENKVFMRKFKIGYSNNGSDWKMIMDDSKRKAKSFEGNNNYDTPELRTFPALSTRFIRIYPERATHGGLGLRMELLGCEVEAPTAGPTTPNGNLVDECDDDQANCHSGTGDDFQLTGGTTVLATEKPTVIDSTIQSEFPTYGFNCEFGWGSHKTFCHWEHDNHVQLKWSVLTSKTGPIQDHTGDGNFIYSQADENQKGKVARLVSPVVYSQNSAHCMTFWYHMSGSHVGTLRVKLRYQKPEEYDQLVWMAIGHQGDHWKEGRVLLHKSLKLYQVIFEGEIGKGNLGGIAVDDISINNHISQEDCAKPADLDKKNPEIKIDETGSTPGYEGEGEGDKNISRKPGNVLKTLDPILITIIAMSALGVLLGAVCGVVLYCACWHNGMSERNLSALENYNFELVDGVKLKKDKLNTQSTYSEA
# ASSAY_COMMENT: NRP-1/CendR peptide interaction modulators – biochemical, fluorescence polarization, uHTS, primary screen (AID 602438)
# STATED_CONDITIONS: FAM-RPARPAR peptide binding to NRP-1, fluorescence polarization; at 25 µM
In all, about 360,000 compounds went through this assay and about 3,100 (0.86%) were called active.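 The calls were made as follows: active = inhibition or corrected inhibition above about 18%, plus a signal ratio from 0.5 to 1.5 (limit read from the data, passing the limit was not always enough); inactive = the rest.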 Many of the other results were omitted from the sample, so actives are more common in it than they were.
Return exactly one item of active, inactive

CCCc1nnc(NC(=O)CCC(=O)NC2CC2)s1
inactive
CCCc1cc(=O)oc2c(C)c(OC(C)C(=O)NCC(O)c3ccccc3)ccc12 (stereo not drawn)
active
CCN(CC)c1ccc(C2C3CCCCC3(O)CCN2CC(=O)Nc2ccccc2)cc1 (stereo not drawn)
inactive

Exercise: I'd appreciate the recorded outcome for "Cc1ccccc1-c1nnc(SCC(=O)NCc2ccc3c(c2)OCO3)n1C" from this test.
Solution: active

Exercise: // repeat for "O=C(C[C@H]1CC[C@H]2[C@@H](COC[C@H](O)CN2C(=O)c2ccccn2)O1)N1CCN(c2ccccc2)CC1" and report
Solution: inactive

Exercise: Ok, now COCCNC(=O)C1C(=O)Nc2ccccc2C(=O)N1c1ccc2c(c1)OCCO2 (stereo not drawn)
Solution: inactive

Exercise: Item: CN(C)C(=O)COC(=O)c1cccc(S(=O)(=O)N2CC3(C)CC2CC(C)(C)C3)c1 (stereo not drawn)
Solution: inactive

Exercise: Subsequent entry: "Cc1ccc(OCc2nnc(NC(=O)OCC(C)C)s2)cc1"
Solution: active
